Target: Avi-KRAS G12V (1-169) GppNHp/RAF1 RBD-3xFLAG (52-151) (Homo sapiens, UniProt P01116, G12V)
Construct: Avi-KRAS G12V (1-169)
Sequence (P01116 1-169 isoform P01116-2 G12V): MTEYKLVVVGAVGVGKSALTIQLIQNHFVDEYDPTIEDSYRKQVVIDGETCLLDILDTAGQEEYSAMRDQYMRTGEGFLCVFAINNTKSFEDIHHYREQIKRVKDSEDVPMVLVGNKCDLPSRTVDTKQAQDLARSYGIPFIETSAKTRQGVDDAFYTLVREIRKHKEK
Test: Raf1-KRAS G12V-GppNHP disruption HTRF assay (Biological Example 1)
Type: binding
Conditions: KRAS G12V, GppNHp-loaded; class symbols
pIC50: −log10 of the molar value.
Parameter Measured: pIC50

The examples below pair each entry with its known result.
Compound	Result
CCN(c1nc(OC[C@@]23CCCN2C[C@H](F)C3)nc2c(F)c(-c3ccc(F)c4sc(N)c(C#N)c34)c(C(F)(F)F)cc12)[C@H]1C[C@H](C)N(C(=O)N2CC(OC)C2)C1 (atropisomer, axis not shown)	> 7.00
CCN(c1nc(OC[C@@]23CCCN2C[C@H](F)C3)nc2c(F)c(-c3ccc(F)c4sc(N)c(C#N)c34)c(C(F)(F)F)cc12)[C@H]1CCN(C(=O)C2CC(OC)C2)C1 (stereo partly shown)	6.00 to 7.00
CCN(c1nc(OC[C@@]23CCCN2C[C@H](F)C3)nc2c(F)c(-c3ccc(F)c4sc(N)c(C#N)c34)c(C(F)(F)F)cc12)[C@H]1CCN(C(=O)[C@@H](C)OC)C1 (atropisomer, axis not shown)	> 7.00

# context switch: different compound, same pIC50
Quick check: pIC50 of CCN(c1nc(OC[C@@]23CCCN2C[C@H](F)C3)nc2c(F)c(-c3ccc(F)c4sc(N)c(C#N)c34)c(C(F)(F)F)cc12)[C@H]1CCN(C(=O)OCCF)C1 (atropisomer, axis not shown) ?
> 7.00
